System Tested: PI3K-α (PIK3CA) wild-type (WT), p110α/p85α complex (Homo sapiens)
Construct: Recombinant, catalytically active human full length PIK3KA Wild-type and H1047R mutant; 6×His (N); purchased EMD Millipore Sigma 14-602M
Test Protocol: PI3K-alpha kinase (PIK3CA) biochemical activity, ADP-Glo, wild-type
Details: Soy PI lipid substrate
pIC50: −log10 of the molar value.
Readout Type: pIC50

Cc1cc(C(C)Nc2ccccc2C(=O)O)c2oc(-c3cc(F)c4nn(C)cc4c3)cc(=O)c2c1 (single isomer, unassigned)
5.30 to 6.00
Cc1cc([C@@H](C)Nc2ccc(Cl)nc2C(=O)O)c2oc(-c3cc4ccccc4[nH]3)c(C)c(=O)c2c1
5.30 to 6.00
Cc1cn2nc(-c3cc(=O)c4cc(C(F)(F)F)cc(C(C)Nc5ccc(Cl)nc5C(=O)O)c4o3)ccc2n1 (single isomer, unassigned)
5.30 to 6.00
Cc1cc(C(C)Nc2ccccc2C(=O)O)c2oc(-c3cccc4c3OCO4)c(C)c(=O)c2c1 (single isomer, unassigned)
5.30 to 6.00
Cc1cc(C(C)Nc2ccccc2C(=O)O)c2oc(-c3ccc4nc(C(F)(F)F)cn4c3)cc(=O)c2c1 (single isomer, unassigned)
5.30 to 6.00
Cc1cc([C@@H](C)Nc2ccc(Cl)nc2C(=O)O)c2oc(-c3ccc4nc(C)sc4c3)c(C)c(=O)c2c1
6.00 to 6.30

Measured values drawn from patent US11878970B2 for this set.
